Measured SPOT intensity values are reported for all entries that follow.
system: T1, Sla1-2, P32790
T1 sequence (P32790 60-140, looked up): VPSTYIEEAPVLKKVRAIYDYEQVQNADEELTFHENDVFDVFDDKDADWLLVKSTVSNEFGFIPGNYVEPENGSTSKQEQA
assay_protocol: SPOT array
test_settings: median of control spots 712
Please reply with the value in numeric form only.

The examples below pair each entry with its known result.
NLPKRKPPKLQGPFS | 1
TIRRRAPLSLLESHT | 1
AKDLIVPRRPEWNEG | 550
FTLPPPPPPPGLDEL | 0
DGNEEKPLLPTRPNK | 0

What the record says about ITHRLRISIPGITGR : SPOT intensity is 4

What the record says about MSPLGAPPPPPHKDH : SPOT intensity is 0
